Biological target: c-Cbl (Homo sapiens (Human), UniProt P22681)
Sequence (P22681 47-435): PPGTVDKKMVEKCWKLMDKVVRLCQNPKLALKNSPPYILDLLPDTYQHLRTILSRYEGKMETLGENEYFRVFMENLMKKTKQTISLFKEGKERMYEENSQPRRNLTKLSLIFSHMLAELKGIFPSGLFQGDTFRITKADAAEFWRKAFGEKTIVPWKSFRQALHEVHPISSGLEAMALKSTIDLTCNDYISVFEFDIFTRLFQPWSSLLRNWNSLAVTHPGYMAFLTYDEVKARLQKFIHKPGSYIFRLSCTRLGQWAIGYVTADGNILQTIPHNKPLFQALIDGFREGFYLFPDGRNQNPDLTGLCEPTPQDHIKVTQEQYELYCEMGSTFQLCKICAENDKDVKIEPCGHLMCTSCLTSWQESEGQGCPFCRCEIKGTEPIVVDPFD
Experiment: C-Cbl LCK Ub TR-FRET assay (c-cbl Lck HTRF)
Format: biochemical
Structures can show the parent of a compound that is named as a salt.
Hi there, I'd appreciate the recorded pIC50 for every entry that follows.
One number for each entry, as −log10 of the molar value.

[[record]]
compound = "CC1(NCc2cc3c(c(C(F)(F)F)c2)CN(c2cccc(C4(Cc5nncn5C5CC5)CC(F)(F)C4)c2)C3=O)CCC1"
system_under_test = "c-Cbl (Homo sapiens (Human), UniProt P22681)"
recorded_metric = "pIC50"
measured = 7.22

[[record]]
compound = "Cn1cnnc1[C@H](F)C1(c2cccc(N3Cc4c(cc(CN5CC(C)(CCl)C5)cc4C(F)(F)F)C3=O)c2)COC1"
system_under_test = "c-Cbl (Homo sapiens (Human), UniProt P22681)"
recorded_metric = "pIC50"
measured = 7.66

[[record]]
compound = "CC(NCc1cc2c(c(C(F)(F)F)c1)CN(c1cccc(C3(Cc4nncn4C)CC(F)(F)C3)c1)C2=O)C1CC1 (stereo not drawn) [Compound 319, formate]"
system_under_test = "c-Cbl (Homo sapiens (Human), UniProt P22681)"
recorded_metric = "pIC50"
measured = 7.80

[[record]]
compound = "CCCC1(O)CN(Cc2cc3c(c(C(F)(F)F)c2)CN(c2cccc(C4([C@@H](F)c5nncn5C)COC4)c2)C3=O)C1"
system_under_test = "c-Cbl (Homo sapiens (Human), UniProt P22681)"
recorded_metric = "pIC50"
measured = 7.09

[[record]]
compound = "Cn1cnnc1[C@@H](F)C1(c2cccc(N3Cc4c(cc(CN5CCC(F)(CO)CC5)cc4C(F)(F)F)C3=O)c2)COC1"
system_under_test = "c-Cbl (Homo sapiens (Human), UniProt P22681)"
recorded_metric = "pIC50"
measured = 6.17


Next, consider the following compound.
Query :: Tell me the measured pIC50 of CC(C)[C@H]1CNCCN1Cc1cc2c(c(C(F)(F)F)c1)CN(c1cccc(C3([C@H](F)c4nncn4C)COC3)c1)C2=O , please.
Result :: 7.42

Data provenance is patent US20250230147A1.
